- experiment-summary: chemical genetic growth profiling, strain panel (AID 1159580);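 also: tested at 20 µM; growth read once vehicle control cultures reached saturation at 30 °C; 1 = growth at the plate median or of vehicle wells; lower values mean less growth of the strain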
- condition-set: S. cerevisiae deletion strains, growth OD, locus YMR129W
Among all 5,500 compounds or so, about 2,000 (36%) were called active. Not shown: some 18% with an inconclusive outcome. Rule as the data show it: active = normalized growth mostly below about 0.91 (no sharp cut-off); inconclusive = no clear call, values can overlap the other calls; inactive = mostly above about 0.92. The list shows a part of the results.
Please answer using one outcome listed in True (active), False (inactive)

Reference set, count: 2
[
  {
    "compound": "NC(N)=NS(=O)(=O)c1ccc(N)cc1",
    "assigned-class": "False"
  },
  {
    "compound": "Cc1cccc(C)c1NC1=NCCCS1",
    "assigned-class": "False"
  }
]

Query :: Just curious, what result did CCCCOC(=O)c1ccccc1C(=O)OCCCC get here?
Result :: False

Query :: # lookup: test call for CCN(CC)CCOC(=O)c1ccc(N)cc1
Result :: False

Query :: Per the records of this test, what outcome belongs to Oc1ccc(Cl)cc1 ?
Result :: False

* * *

- experiment-summary: chemical genetic growth profiling, strain panel (AID 1159580);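 also: tested at 20 µM; growth read once vehicle control cultures reached saturation at 30 °C; 1 = growth at the plate median or of vehicle wells; lower values mean less growth of the strain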
- condition-set: S. cerevisiae deletion strains, growth OD, locus YHR027C, strain rpn1
Counter-ions that a name gives are not always drawn. In all, about 5,500 compounds went through this assay and about 2,000 (36%) were called active. Roughly 18% stayed inconclusive and do not appear here. No stated cut-off is given here; in the data, active means normalized growth mostly below about 0.91 (no sharp cut-off); inconclusive means no clear call, values can overlap the other calls; inactive means mostly above about 0.92. Some of the results follow. Where a SMILES comes first, the peptide text is derived from it. The star is where a group is joined. Tfa = O=C(C(F)(F)F)*
Please reply with one of these outcomes: active, inactive

# example entries with known answers
[
  {
    "compound": "CC(=O)N[C@@H](CS)C(=O)O",
    "assigned-class": "inactive"
  },
  {
    "compound": "CC(C)C(NC(=O)C(Cc1ccc(O)cc1)NC(=O)C(NC(=O)C(F)(F)F)C(C)C)C(=O)O (stereo not drawn) (Tfa-Val-Tyr-Val-OH; configuration not given here)",
    "assigned-class": "inactive"
  },
  {
    "compound": "O=C(O)c1ccccc1-c1c2cc(Br)c(=O)cc-2oc2[c]([Hg])c(O)c(Br)cc12",
    "assigned-class": "inactive"
  },
  {
    "compound": "Cc1c(Cl)cccc1Nc1ccccc1C(=O)O",
    "assigned-class": "active"
  }
]

Query :: Test call, this compound: CCCCCCCCCCCCCCCC(=O)OC1C(SC)OC(C(NC(=O)C2CC(CCC)CN2C)C(C)Cl)C(O)C1O (stereo not given)
Result :: inactive

* * *

- experiment-summary: chemical genetic growth profiling, strain panel (AID 1159580);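 also: tested at 20 µM; growth read once vehicle control cultures reached saturation at 30 °C; 1 = growth at the plate median or of vehicle wells; lower values mean less growth of the strain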
- condition-set: S. cerevisiae deletion strains, growth OD, locus YDR477W, strain SNF1, active compounds read low
The campaign covered roughly 5,500 compounds. About 2,000 (36%) were called active. Another 18% or so got no clear call; they are omitted. Some of the results follow.
# maps each entry to its normalized growth
# answer = number (no unit)

Worked examples follow.
[
  {
    "compound": "Cc1c(C(=S)Nc2ccccc2)sc2ccccc12",
    "number": 0.887
  },
  {
    "compound": "Cc1nc(-c2ccc(S(=O)(=O)Nc3ccc(Br)cc3Cl)s2)cs1",
    "number": 0.858
  },
  {
    "compound": "CC1(C)OC(=O)C(=Cc2cccn2-c2ccc(OC(F)(F)F)cc2)C(=O)O1",
    "number": 0.898
  },
  {
    "compound": "Cc1ccc(NS(=O)(=O)c2ccc(Cl)cc2)c(N=Cc2cc(Cl)cc(Cl)c2O)c1",
    "number": 0.252
  },
  {
    "compound": "O=C(NNc1ccc(I)cc1)c1cc(Cl)cc(Cl)c1",
    "number": 0.731
  }
]

Reported normalized growth ( Cc1onc(-c2c(F)cccc2Cl)c1C(=O)NNc1cc(Cl)cc(Cl)c1 ) = 0.931

Entry O=[N+]([O-])c1ccc2oc(C(O)c3ccc(-c4ccccc4)cc3)cc2c1 (configuration not stated) ; normalized growth = 0.849
